- System: ACHN
- procedure details: NCI tumour cell line growth inhibition, 48 h
The source made the active and inactive calls. Cut-off read from the data, not from the text of the source: active = GI50 up to about 1.1 µM and inactive = higher.
Known GI50 of a selection of compounds
measure: GI50

>>> df
                                   compound               result
0  O=C(Cc1ccccc1)NN1C(=O)C(Cl)C1c1ccc(O)cc1 (stereo not drawn)  > 100 µM (inactive)
1    Cc1nn(C)c2nc3ccc(Cl)cc3c(-c3ccccc3)c12  > 100 µM (inactive)
2        C/C(CC(=O)Nc1cccc(C)c1C)=N\NC(N)=S  > 100 µM (inactive)

* * *

Entries and their GI50
- Test system: SR
- procedure details: NCI tumour cell line growth inhibition, 48 h
Calls of active or inactive are those of the source. Cut-off read from the data, not from the text of the source: active = GI50 up to about 1.1 µM and inactive = higher.
measure: GI50

>>> df
                                   compound  measure               result
0  COc1cc2c(cc1OC)-c1c(cnn1C1OC(COC(C)=O)C(OC(C)=O)C(OC(C)=O)C1OC(C)=O)CC2 (stereo not given)     GI50   10.5 µM (inactive)
1  COc1ccc(C[C@H]2COC(=O)[C@@H]2Cc2cc(OC)c(OC)c(OC)c2)cc1OC     GI50    5.9 µM (inactive)
2  O=c1c2ccc(Cl)cc2oc2c(CNc3ccc(S(=O)(=O)Nc4ncccn4)cc3)cccc12     GI50  > 100 µM (inactive)
3  O=C(NNc1ccccc1)/C(=C/c1ccc2c(c1)OCO2)NC(=O)c1ccccc1     GI50   32.2 µM (inactive)
4  c1ccc(/N=c2/sc3ccccc3s/c2=N/c2ccccc2)cc1     GI50   3.35 µM (inactive)
5  CSc1ccc(/C=C2\N=C(c3ccccc3)N(c3nc4cc(Cl)c(F)cc4s3)C2=O)cc1     GI50   37.4 µM (inactive)
6  Oc1ccccc1-c1nn2c(CCCCCCCCc3nnc4sc(-c5ccccc5O)nn34)nnc2s1     GI50   3.93 µM (inactive)
7  COc1ccc(C2OC(=O)c3c2ccc2ccccc32)c(C)c1 (stereo not given)     GI50   2.42 µM (inactive)
8  CC(=O)[C@H]1[C@H](O)C[C@@]2(C)[C@@H]3CCc4cc(O)c(OC5OC(CO)C(O)C(O)C5O)cc4C3(C)C(=O)C[C@]12C (stereo not given in full)     GI50  > 100 µM (inactive)
9                    CC(=O)/C(=C\I)c1ccccc1     GI50   1.49 µM (inactive)
